This collection of values is drawn from the COVID Moonshot data (paper PMC11187573).

Details: 100.0 µM
Listed next: entries and their corresponding relative solubility at 100 uM.
measured attribute: relative solubility at 100 uM

> print(dat)
                                    molecule             measured.attribute  measured.value
 1           Cc1nnc(NC(=O)Cc2cccc(Cl)c2F)n1C  relative solubility at 100 uM               1
 2  COc1ccccc1OCCNC(=O)c1cc(=O)[nH]c2ccc(Cl)cc12  relative solubility at 100 uM            0.66
 3  CS(=O)(=O)c1ncc(Cl)c(C(=O)Nc2ccccc2Cc2ccccc2)n1  relative solubility at 100 uM            0.79
 4  C=CC(=O)N(c1ccc(C(C)(C)C)cc1)C(C(=O)NC1CC(C(=O)OC)C1)c1cccnc1 (stereo not given)  relative solubility at 100 uM            0.98
 5  NC1=Nc2nc3ccccc3n2C(c2ccc(-c3nc4ccccc4s3)o2)N1 (stereo not given)  relative solubility at 100 uM            0.23
 6  C=CC(=O)N(C(C(=O)NC(C)(C)C)c1cccnc1)[C@@H]1C[C@@H]1c1ccccc1 (stereo in doubt)  relative solubility at 100 uM            0.88
 7  O=C1CC(c2cccc(NC(=O)Cc3cncnc3)c2)CN1 (stereo not given)  relative solubility at 100 uM               1
 8              Cc1ccncc1NC(=O)Cc1cncc(Cl)c1  relative solubility at 100 uM            1.01
 9  Cc1cccc(NC2CCN(c3ccc(S(N)(=O)=O)cc3)CC2)c1  relative solubility at 100 uM            0.87
10  C=CC(=O)N(c1ccc(C2(C)CC2)cc1)C(C(=O)Nc1cccc(F)c1C)c1cccnc1 (stereo not given)  relative solubility at 100 uM               1
